Reported SKM MF AC1.4 values are given for each entry in this list.
Tested on: SKM MF
test.name: SKM MF AC1.4: ATPase of skeletal sarcomeric proteins (actin, tropomyosin, troponin complex, myosin), PK/LDH coupled enzyme system
Type: biochemical
condition.details: screen at pCa=6.5; † mean value, ‡ median value
Protocol: For example, test compounds can be assayed in a highly parallel fashion by using multiwell plates by placing the compounds either individually in wells or testing them in mixtures. Assay components including the target protein complex, coupling enzymes and substrates, and ATP can then be added to the wells and the absorbance or fluorescence of each well of the plate can be measured with a plate reader. In some embodiments, the method uses a 384 well plate format and a 25 μL reaction volume. […]

[
  {
    "molecule": "C=Cc1cnc2nc(O)n(C(CC)CC)c2n1",
    "tested.on": "SKM MF",
    "units": "µM",
    "comparative.sign": "=",
    "SKM MF AC1.4": 2.3
  },
  {
    "molecule": "CC(C)C[C@H](CN1CCOCC1)n1c(O)nc2ncc(Br)nc21",
    "tested.on": "SKM MF",
    "units": "µM",
    "comparative.sign": "=",
    "SKM MF AC1.4": 0.5
  },
  {
    "molecule": "CCC(CN1CCN(C)CC1)n1c(O)nc2ncc(Br)nc21 (centres unmarked)",
    "tested.on": "SKM MF",
    "units": "µM",
    "comparative.sign": "=",
    "SKM MF AC1.4": 14.9
  },
  {
    "molecule": "C/C=C\\c1cnc2nc(O)n(C3CCCCC3)c2n1",
    "tested.on": "SKM MF",
    "units": "µM",
    "comparative.sign": "=",
    "SKM MF AC1.4": 6.0
  },
  {
    "molecule": "CCC(CC)n1c(O)nc2ncc(C)nc21",
    "tested.on": "SKM MF",
    "units": "µM",
    "comparative.sign": "=",
    "SKM MF AC1.4": 0.53
  },
  {
    "molecule": "CC(C)=Cc1cnc2nc(O)n([C@@H](C)c3ccccc3)c2n1",
    "tested.on": "SKM MF",
    "units": "µM",
    "comparative.sign": "=",
    "SKM MF AC1.4": 2.7
  },
  {
    "molecule": "CCC(CNC)n1c(O)nc2ncc(Br)nc21 (centres unmarked)",
    "tested.on": "SKM MF",
    "units": "µM",
    "comparative.sign": "=",
    "SKM MF AC1.4": 45.7
  },
  {
    "molecule": "CCC(C(=O)O)n1c(O)nc2ncc(Br)nc21 (centres unmarked)",
    "tested.on": "SKM MF",
    "units": "µM",
    "comparative.sign": ">",
    "SKM MF AC1.4": 49
  },
  {
    "molecule": "CCC(CN(C)C)n1c(O)nc2ncc(Br)nc21 (centres unmarked)",
    "tested.on": "SKM MF",
    "units": "µM",
    "comparative.sign": "=",
    "SKM MF AC1.4": 43.8
  },
  {
    "molecule": "C/C=C\\c1cnc2nc(O)n(C(CC)CC)c2n1",
    "tested.on": "SKM MF",
    "units": "µM",
    "comparative.sign": "=",
    "SKM MF AC1.4": 0.6
  },
  {
    "molecule": "C/C=C/c1cnc2nc(O)n(C3CCCCC3)c2n1",
    "tested.on": "SKM MF",
    "units": "µM",
    "comparative.sign": "=",
    "SKM MF AC1.4": 6.1
  },
  {
    "molecule": "C/C=C\\c1cnc2nc(O)n(C(C)C)c2n1",
    "tested.on": "SKM MF",
    "units": "µM",
    "comparative.sign": "=",
    "SKM MF AC1.4": 4.6
  },
  {
    "molecule": "Oc1nc2ncc(Br)nc2n1C1CCCCC1",
    "tested.on": "SKM MF",
    "units": "µM",
    "comparative.sign": "=",
    "SKM MF AC1.4": 10.4
  },
  {
    "molecule": "CC[C@H](C)n1c(O)nc2ncc(Br)nc21",
    "tested.on": "SKM MF",
    "units": "µM",
    "comparative.sign": "=",
    "SKM MF AC1.4": 0.8
  },
  {
    "molecule": "C/C=C\\c1cnc2nc(O)n([C@@H](C)c3ccccc3)c2n1",
    "tested.on": "SKM MF",
    "units": "µM",
    "comparative.sign": "=",
    "SKM MF AC1.4": 1.0
  },
  {
    "molecule": "CCC(CC)n1c(O)nc2ncc(C#N)nc21",
    "tested.on": "SKM MF",
    "units": "µM",
    "comparative.sign": "=",
    "SKM MF AC1.4": 36.4
  },
  {
    "molecule": "C/C=C/c1cnc2nc(O)n([C@@H](C)c3ccccc3)c2n1",
    "tested.on": "SKM MF",
    "units": "µM",
    "comparative.sign": "=",
    "SKM MF AC1.4": 1.6
  },
  {
    "molecule": "CC[C@H](CO)n1c(O)nc2ncc(Br)nc21",
    "tested.on": "SKM MF",
    "units": "µM",
    "comparative.sign": "=",
    "SKM MF AC1.4": 1.1
  },
  {
    "molecule": "C[C@@H](c1ccccc1)n1c(O)nc2ncc(Br)nc21",
    "tested.on": "SKM MF",
    "units": "µM",
    "comparative.sign": "=",
    "SKM MF AC1.4": 0.45
  },
  {
    "molecule": "CC(C)n1c(O)nc2ncc(Br)nc21",
    "tested.on": "SKM MF",
    "units": "µM",
    "comparative.sign": "=",
    "SKM MF AC1.4": 6.0
  },
  {
    "molecule": "CC[C@@H](CN1CCOCC1)n1c(O)nc2ncc(Br)nc21",
    "tested.on": "SKM MF",
    "units": "µM",
    "comparative.sign": ">",
    "SKM MF AC1.4": 49
  },
  {
    "molecule": "CCCc1cnc2nc(O)n([C@@H](C)c3ccccc3)c2n1",
    "tested.on": "SKM MF",
    "units": "µM",
    "comparative.sign": "=",
    "SKM MF AC1.4": 29.7
  }
]

Reference source for all entries: patent US10766899B2
